- TESTED_ON: Fuc(a1-2)Gal(b1-4)GlcNAc6S
- METHOD_NOTES: glycan array binding signal (z-score within array); higher = stronger binding
- APPLIED_CONDITIONS: glycan notation: IUPAC condensed, linker removed
About 410 targets per protein were measured; listed, in parts, are those with the strongest signals and a random draw of the rest.
RECORDED_METRIC: glycan array binding signal (z-score)
Please reply with the value in numeric form only.

Consider the reported glycan array binding signal (z-score) for these binders:
GH98CBM51-1 (Streptococcus pneumoniae) (protein) MTYLSDMDWSSATHGDIDKTKTVQKDAPFTTGNKGEHTKISLLTSDDKVKYFDKGIGTVADSPSVISYDISGQGFEKFETYIGIDQSANSSRSDHAVVDRIEIEIDGKVVYSSSVTNPEGFRYNTQAQFISVTIPQNAKKISLKSFAGEHTWGDEVVFADAKLIKTVST ... -0.194
SRS2 (Toxoplasma gondii), O15695 (protein) MATRASLARQKTGAACLAVLTASPSVVAAKPWKRWVGVSVILASAFAVGVSAGPPYRYEPEKFTCRPKKGILSQWVSLLYQVQHNITFACEEATPVPTTLISEEHGLMVCAENMTPEECEANPAPLSAFLPGATKEWVTGDSVLTGLKISVPESQYPANAKSFRVGCRHNTKTGNTCMLTIHVEPRDPAVERQEARCSYTENSTLPKIFVTKDSNTMTLACGPHGAPMPESYTENYCSTPDTCDEKPFTSVIPGYLSKWFFGDPKSPLGARVRIPPEQIPSSPQINYFGCTGPTEGEGPKYNCTVPVPLGGGDPSEGSRPGGGSGGGKRGGGQGGGGSLAGFDFRQGSARHSLPSRMALSASALLAMTALAY ... 0.345
GH95CBM (Clostridium perfringens) (protein) EKVAVETSVYLSELEWKSASTGYGEIQKDASCDGNTITLKGENGEKVSYDKGIGTHAHSEIVYSLEGLDYYDYFETFVGVDQEMAGTVASISFEVYLDNEKVFDSGLMTGDTTQKHVKVPIAGKNTLKLVVKDGGDSIGSDHGSFGDAKLT ... -0.334
FimD (Bordetella pertussis) (protein) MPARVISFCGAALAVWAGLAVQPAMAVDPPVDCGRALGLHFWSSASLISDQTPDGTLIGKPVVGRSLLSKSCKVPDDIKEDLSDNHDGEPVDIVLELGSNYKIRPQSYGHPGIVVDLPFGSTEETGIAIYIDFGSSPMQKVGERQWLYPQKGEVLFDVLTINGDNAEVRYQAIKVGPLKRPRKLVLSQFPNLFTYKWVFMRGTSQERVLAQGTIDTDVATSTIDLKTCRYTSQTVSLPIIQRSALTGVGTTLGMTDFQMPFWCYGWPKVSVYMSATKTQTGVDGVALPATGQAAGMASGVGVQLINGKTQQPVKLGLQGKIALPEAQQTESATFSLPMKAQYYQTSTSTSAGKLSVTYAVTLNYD ... -0.052
Pwp4 (Candida glabrata) (protein) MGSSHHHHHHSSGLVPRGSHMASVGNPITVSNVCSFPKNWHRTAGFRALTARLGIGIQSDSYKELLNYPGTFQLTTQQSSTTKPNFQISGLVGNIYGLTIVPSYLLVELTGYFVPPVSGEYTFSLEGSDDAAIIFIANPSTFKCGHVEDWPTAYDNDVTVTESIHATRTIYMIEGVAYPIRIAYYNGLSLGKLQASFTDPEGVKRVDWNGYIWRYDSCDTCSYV ... -0.4

Please examine the following record next.
query: Would you kindly share the measured glycan array binding signal (z-score) for CBM32-4 (Clostridium perfringens), P26831 (protein) MGSSHHHHHHSSGLVPRGSHMASVYEPSLVDAYVGDDGAKKAVDGDLKTRVKFLGAPSTGDTIVYDLGQEILVDNLKYVVLDTEVDHVRDGKIQLSLDGETWTDAINIGDGVENGVDDMFSTPLKNGYKHGNQSGGIVPIDSAYVEGDNLNQKARYVRILFTAPYRHRWTVINELMINNGEYIPTVNDPT ?
result: -0.104
